Where these numbers come from: patent US20200022963A1

assay_protocol: Pharmacokinetic profile after single oral, intranasal and intravenous betahistine in beagle dogs, Example 5
Assay type: in vivo
experimental_conditions: male, beagle, dog, in vivo, inhaled or intranasal, 15.8 mg/kg
measure: AUC(0-inf)
I'd appreciate it if you included the unit after the number.

Inquiry: For O=C(O)Cc1ccccn1 , write its AUC(0-inf).
Reply text: 12800 ng·h/mL

###

assay_protocol: Pharmacokinetic profile after single oral, intranasal and intravenous betahistine in beagle dogs, Example 5
Assay type: in vivo
experimental_conditions: male, beagle, dog, in vivo, inhaled or intranasal, 15.8 mg/kg
measure: half-life (h)
State the answer as a number, implicitly in h.

Inquiry: For O=C(O)Cc1ccccn1 , write its half-life.
Reply text: 2.87

###

assay_protocol: Pharmacokinetic profile after single oral, intranasal and intravenous betahistine in beagle dogs, Example 5
Type: in vivo
experimental_conditions: male, beagle, dog, in vivo, po, 12 mg/kg, Betahistine Plasma Concentration
measure: concentration at 1 h
I'd appreciate it if you included the unit after the number.

Inquiry: For CNCCc1ccccn1 , write its concentration at 1 h.
Reply text: 5.65 ng/mL

###

assay_protocol: Pharmacokinetic profile after single oral, intranasal and intravenous betahistine in beagle dogs, Example 5
Type: in vivo
experimental_conditions: male, beagle, dog, in vivo, inhaled or intranasal, 15.8 mg/kg, AUC(0-t)
measure: AUC(0-t) (µg·h/mL)
State the answer as a number, implicitly in µg·h/mL.

Inquiry: For CNCCc1ccccn1 , write its AUC(0-t).
Reply text: 0.199

Inquiry: For O=C(O)Cc1ccccn1 , write its AUC(0-t).
Reply text: 12.7

###

assay_protocol: Pharmacokinetic profile after single oral, intranasal and intravenous betahistine in beagle dogs, Example 5
Assay type: in vivo
experimental_conditions: male, beagle, dog, in vivo, po, 24 mg/kg, Betahistine Plasma Concentration
measure: concentration at 0.167 h (ng/mL)
State the answer as a number, implicitly in ng/mL.

Inquiry: For CNCCc1ccccn1 [betahistine] , write its concentration at 0.167 h.
Reply text: 5.05

###

assay_protocol: Pharmacokinetic profile after single oral, intranasal and intravenous betahistine in beagle dogs, Example 5
Assay type: in vivo
experimental_conditions: male, beagle, dog, in vivo, iv, 0.44 mg/kg, Betahistine Plasma Concentration
measure: concentration at 0.5 h (ng/mL)
State the answer as a number, implicitly in ng/mL.

Inquiry: For CNCCc1ccccn1 , write its concentration at 0.5 h.
Reply text: 5.57

###

assay_protocol: Pharmacokinetic profile after single oral, intranasal and intravenous betahistine in beagle dogs, Example 5
Format: in vivo
experimental_conditions: both sexes, beagle, dog, in vivo, iv, 0.44 mg/kg, Betahistine Plasma Concentration
measure: concentration at 0 h (ng/mL)
State the answer as a number, implicitly in ng/mL.

Inquiry: For CNCCc1ccccn1 , write its concentration at 0 h.
Reply text: 0.0825

###

assay_protocol: Pharmacokinetic profile after single oral, intranasal and intravenous betahistine in beagle dogs, Example 5
Assay type: in vivo
experimental_conditions: both sexes, beagle, dog, in vivo, po, 48 mg/kg, Betahistine Plasma Concentration
measure: concentration at 5 min (ng/mL)
State the answer as a number, implicitly in ng/mL.

Inquiry: For CNCCc1ccccn1 , write its concentration at 5 min.
Reply text: 12.1

###

Kindly supply the reported AUC(0-t) values for the records listed here.
assay_protocol: Pharmacokinetic profile after single oral, intranasal and intravenous betahistine in beagle dogs, Example 5
Format: in vivo
experimental_conditions: female, beagle, dog, in vivo, inhaled or intranasal, 13 mg/kg, AUC(0-6)
Protocol: In this study, the pharmacokinetic profile of betahistine was evaluated after a single dose administration of betahistine in male and female beagle dogs (age 5-7 months; weight of 5-11 kg, within a range of 3 kg for each sex) for three routes of administration: oral, intranasal, and intravenous. On Day 1 of the study, betahistine (BH) was delivered orally at a dose of 12 mg/kg, 24 mg/kg, or 48 mg/kg. Each treatment group comprised 8 animals (4 males and 4 females). […]
State the answer as a number, implicitly in ng·h/mL.

Inquiry: For CNCCc1ccccn1 , write its AUC(0-t).
Reply text: 432

Inquiry: For O=C(O)Cc1ccccn1 , write its AUC(0-t).
Reply text: 19300
